Tgt: T1, cell surface ULBP6_02 on PANC02.13 cells (human, UniProt Q5VY80 26-218)
T1 construct: whole, on cells; also called cell surface ULBP6 (PANC02.13)
T1 chain: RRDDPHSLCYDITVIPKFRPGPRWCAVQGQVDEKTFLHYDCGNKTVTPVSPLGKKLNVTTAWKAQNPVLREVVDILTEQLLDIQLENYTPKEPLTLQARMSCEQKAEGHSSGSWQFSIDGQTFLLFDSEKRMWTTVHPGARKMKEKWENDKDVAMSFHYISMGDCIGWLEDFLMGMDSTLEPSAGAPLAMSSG
Run description: flow cytometry on PANC02.13 cells, anti-hFc-APC detection, average of 2 replicates
Reported EC50 values for the following binders.
Number first, unit second: that is the form wanted.

Below are worked cases with known answers.
humanized 8E11 (h8E11), Fc version not stated (antibody, V domains shown, Recombinant humanized antibody, hIgG1 backbone with kappa light chain; also called PUR3926) VH: EVQLVESGGGLVQPGGSLRLSCAASGFTFRTYGMHWVRQAPGKGLEWVAYISSGSGTIDYADTVKGRFTISRDNAKNSLYLQMNSLRAEDTAVYYCTRQTGAMDYWGQGTLVTVSS VL: EIVLTQSPATLSLSPGERATLSCSASSSVSYMNWYQQKPGQSPRLWIYGISNLASGVPARFSGSGSGTDFTLTISSLEPEDFAVYYCQQRSSHPLTFGGGTKVEIK | 1.28 nM
humanized 7B3 (h7B3), Fc version not stated (antibody, V domains shown, Recombinant humanized antibody, hIgG1 backbone with kappa light chain; also called hu7B3; PUR3922) VH: EVQLVESGGGLVQPGGSLRLSCAASGFTFSTYGFHWVRQAPGKGLEWVAYISSNSGTIDYADTVKGRFTISRDNAKNSLYLQMNSLRAEDTAVYYCARQGYGFDNWGQGTTVTVSS VL: DIQLTQSPSSLSASVGDRVTITCSASSRVSYMNWYQQKPGKSPKIWVYGISNLASGVPSRFSGSGSGTDFTFTISSLQPEDIATYYCQQRSSHPLTFGGGTKVEIK | 1.97 nM
humanized 1D4 (h1D4), Fc version not stated (antibody, V domains shown, Recombinant humanized antibody, hIgG1 backbone with kappa light chain; also called hiD4; hu1D4) VH: EIQLVQSGSELKKPGASVKVSCKASGYTFTEYPIHWVRQAPGQGFEWMGMIYTDTGEPTHAEEFKGRFVFSLDTSVSTAYLQISSLKAEDTAVYFCVRWYDGSSYIMDYWGQGTTVTVSS VL: DIQMTQSPSSLSASVGDRVTITCKASQDINSYLSWFQQKPGKSPKTLIYRANRLVDGVPSRFSGSGSGQDYTFTISSLQPEDIATYYCLQYDEFPLTFGGGTKVEIK | 0.72 nM

Consider the additional binder presented here.
Could you tell me which EC50 is on file for humanized 6E1 (h6E1), Fc version not stated (antibody, V domains shown, Recombinant humanized antibody, hIgG1 backbone with kappa light chain; also called hu6E1; PUR3993) VH: EVQLVQSGAEVKKPGASVKVSCKASGYTFTNYWMHWMRQAPGQGLEWLGRIHPSDSDTNYNQKFKGRATLTVDKSISTAYMELSRLRSDDTAVYYCAIEGTGKGYFDVWGRGTLVTVSS VL: DIQMTQSPSSLSASVGDRVTITCKASQDIYSYLSWFQQKPGKSPKTLIYRANRLVDGVPSRFSGSGSGQDFTLTISSLQPEDFATYYCLHYDEFPLTFGGGTKVEIK ?
0.44 nM
